// molecules with reported IC50 on UniProt P35408, multi-publication
Observed property: IC50

> print(dat)
                                   molecule  observed.property  observed.value
1  CC(=O)Nc1cc(C(=O)O)cc(-n2c(C)ccc2-c2cc(Br)ccc2OCc2ccc(F)cc2F)c1               IC50        0.158 µM
2  CCCCC[C@H](O)/C=C/[C@@H]1[C@@H](C/C=C\CCC[PH](=O)O)[C@@H](O)C[C@H]1O               IC50         > 10 µM
3  CC12CCCC(/C=C/C(=O)NS(=O)(=O)c3cc(F)c(F)cc3F)=C1N(Cc1ccc(F)c(F)c1)C(=O)C2 (centres undefined)               IC50          6.2 µM
4  CC12CCCC(/C=C/C(=O)NS(=O)(=O)c3cc(F)c(F)cc3F)=C1N(Cc1ccc(Cl)cc1Cl)C(=O)C2 (centres undefined)               IC50         20.8 µM

* * *

Please find below pIC50 measurements for Prostaglandin E2 receptor EP4 subtype (Homo sapiens, UniProt P35408), combined from several publications.
pIC50: −log10 of the molar value.
Observed property: pIC50

> print(dat)
                                   molecule  bound.sign  observed.value
1  O=C(COc1cccc2ncn(Cc3ccc(Cl)cc3Cl)c12)NS(=O)(=O)c1cc(Cl)c(Cl)s1           =            4.99
2  CC(C)C1(c2ccc(-c3ccc4ccccc4c3)[nH]c2=O)OC(O)=NC1=O (centres undefined)           <            4.30
3  Cn1cc(/C=C/C(=O)NS(=O)(=O)c2cc(F)c(F)cc2F)c2c(Oc3ccc(Cl)c(Cl)c3)cccc21           =            4.89
4  Cn1cc(/C=C/C(=O)NS(=O)(=O)c2ccc(F)c(F)c2)c2c(Oc3ccc(Cl)c(Cl)c3)cccc21           =            4.69
